target: HLA-B*40:01; experiment: IEDB peptide-MHC binding, purified MHC/direct/fluorescence; filed as Kd, often an IC50 or EC50 that approximates it; bounds were set here for any values at or beyond the usual limits of such assays; conditions: source organism: Camelpox virus M-96
experimental.endpoint: Kd (nM)
Number only, in nM; omit the unit.

Sample WENGFKVVL — what was its Kd?
4

====

molecular target: HLA-B*83:01; test: IEDB peptide-MHC binding, purified MHC/competitive/fluorescence; filed as Kd, often an IC50 or EC50 that approximates it; bounds were set here for any values at or beyond the usual limits of such assays; conditions: source organism: Mus musculus
pKd: −log10 of the molar value.
experimental.endpoint: pKd

Sample GVPKTHLEL — what was its pKd?
≤ 5.30

====

target: HLA-A*33:01; assay: IEDB peptide-MHC binding, purified MHC/competitive/radioactivity; filed as Kd, often an IC50 or EC50 that approximates it; bounds were set here for any values at or beyond the usual limits of such assays; settings: source organism: Triticum aestivum
pKd: −log10 of the molar value.
experimental.endpoint: pKd

Sample NVVHAIILH — what was its pKd?
≤ 4.61

====

molecular target: HLA-A*69:01; experiment: IEDB peptide-MHC binding, purified MHC/competitive/fluorescence; filed as Kd, often an IC50 or EC50 that approximates it; bounds were set here for any values at or beyond the usual limits of such assays; conditions: source organism: Macaca mulatta
pKd: −log10 of the molar value.
experimental.endpoint: pKd

Find the measured pKd: item SAEVVTLWY , target or system HLA-A*69:01.
≤ 4.70

====

target: HLA-A*02:03; experiment: IEDB peptide-MHC binding, purified MHC/competitive/fluorescence; filed as Kd, often an IC50 or EC50 that approximates it; bounds were set here for any values at or beyond the usual limits of such assays; settings: source organism: Homo sapiens
experimental.endpoint: Kd

Find the measured Kd: item SQLPPACPV , target or system HLA-A*02:03.
≥ 20 µM

====

biological target: HLA-A*02:03; assay: IEDB peptide-MHC binding, purified MHC/competitive/radioactivity; filed as Kd, often an IC50 or EC50 that approximates it; bounds were set here for any values at or beyond the usual limits of such assays; details: source organism: Dengue virus 1 Brazil/97-11/1997
Kindly state Kd for each of the entries shown.
Number only, in nM; omit the unit.

Sample TIGLSLVASV — what was its Kd?
12.8

Sample TLMLLALIAV — what was its Kd?
29.1

Sample IMAIGIVSI — what was its Kd?
13.4

Sample VLFSGVSWT — what was its Kd?
60.1

Sample WMTTEDMLSV — what was its Kd?
8.93

Sample KMFEATARGA — what was its Kd?
51.1

====

target: HLA-A*02:11; assay: IEDB peptide-MHC binding, purified MHC/competitive/fluorescence; filed as Kd, often an IC50 or EC50 that approximates it; bounds were set here for any values at or beyond the usual limits of such assays; conditions: source organism: Salmonella enterica subsp. enterica serovar Typhimurium str. LT2
experimental.endpoint: Kd (nM)
Number only, in nM; omit the unit.

Find the measured Kd: item ILNSDDEQA , target or system HLA-A*02:11.
142

====

target: HLA-A*03:01; assay: IEDB peptide-MHC binding, purified MHC/competitive/fluorescence; bounds were set here for any values at or beyond the usual limits of such assays; conditions: source organism: Variola virus
Kindly state IC50 for each of the entries shown.
Number only, in µM; omit the unit.

Sample KLFSYGTLI — what was its IC50?
5.5

Sample LTGGTGVGK — what was its IC50?
5.75

Sample IIIAVARKH — what was its IC50?
35.5

====

target: HLA-B*08:01; assay: IEDB peptide-MHC binding, purified MHC/direct/fluorescence; filed as Kd, often an IC50 or EC50 that approximates it; bounds were set here for any values at or beyond the usual limits of such assays; details: source organism: Vibrio cholerae
experimental.endpoint: Kd

Sample AYYWNQNGF — what was its Kd?
≥ 20 µM

====

target: HLA-A*01:01; experiment: IEDB peptide-MHC binding, purified MHC/direct/fluorescence; filed as Kd, often an IC50 or EC50 that approximates it; bounds were set here for any values at or beyond the usual limits of such assays; settings: source organism: Giardia lamblia ATCC 50803
experimental.endpoint: Kd

Sample EIRHRSGIQ — what was its Kd?
≥ 20 µM

Sample IARLVYKAR — what was its Kd?
≥ 20 µM

Sample WSDLNTTDF — what was its Kd?
0.156 µM

====

target: HLA-B*27:05; assay: IEDB peptide-MHC binding, purified MHC/direct/fluorescence; filed as Kd, often an IC50 or EC50 that approximates it; bounds were set here for any values at or beyond the usual limits of such assays; conditions: source organism: Sudan ebolavirus - Maleo (1979)
experimental.endpoint: Kd

Sample MHYKLDEVL — what was its Kd?
≥ 20 µM

====

target: HLA-B*40:01; assay: IEDB peptide-MHC binding, purified MHC/direct/fluorescence; filed as Kd, often an IC50 or EC50 that approximates it; bounds were set here for any values at or beyond the usual limits of such assays; settings: source organism: Influenza A virus (A/duck/Mongolia/47/2001(H7N1))
experimental.endpoint: Kd

Find the measured Kd: item FLKDVMESM , target or system HLA-B*40:01.
≥ 20 µM

====

target: HLA-A*03:01; test: IEDB peptide-MHC binding, purified MHC/direct/fluorescence; filed as Kd, often an IC50 or EC50 that approximates it; bounds were set here for any values at or beyond the usual limits of such assays; conditions: source organism: Yersinia pestis Antiqua
pKd: −log10 of the molar value.
experimental.endpoint: pKd

Sample RYQRMTGGY — what was its pKd?
≤ 4.70

====

target: HLA-B*15:09; assay: IEDB peptide-MHC binding, purified MHC/direct/fluorescence; filed as Kd, often an IC50 or EC50 that approximates it; bounds were set here for any values at or beyond the usual limits of such assays; conditions: source organism: Burkholderia mallei ATCC 23344
experimental.endpoint: Kd

Find the measured Kd: item FEIGNGDAG , target or system HLA-B*15:09.
≥ 20 µM

====

target: HLA-A*02:02; assay: IEDB peptide-MHC binding, purified MHC/competitive/radioactivity; filed as Kd, often an IC50 or EC50 that approximates it; bounds were set here for any values at or beyond the usual limits of such assays; conditions: source organism: Lymphocytic choriomeningitis virus (strain Armstrong)
experimental.endpoint: Kd (nM)
Number only, in nM; omit the unit.

Sample LNMFVSDQV — what was its Kd?
17.6

Sample YCNYSKFWYL — what was its Kd?
1110

====

biological target: HLA-B*07:02; assay: IEDB peptide-MHC binding, purified MHC/direct/fluorescence; filed as Kd, often an IC50 or EC50 that approximates it; bounds were set here for any values at or beyond the usual limits of such assays; settings: source organism: Haemophilus influenzae
pKd: −log10 of the molar value.
experimental.endpoint: pKd

Sample LAEQFSGEY — what was its pKd?
≤ 4.70

====

biological target: HLA-A*02:19; assay: IEDB peptide-MHC binding, purified MHC/competitive/fluorescence; filed as Kd, often an IC50 or EC50 that approximates it; bounds were set here for any values at or beyond the usual limits of such assays; settings: source organism: Encephalitozoon cuniculi GB-M1
experimental.endpoint: Kd

Find the measured Kd: item ALEEGRKYV , target or system HLA-A*02:19.
0.437 µM

====

molecular target: HLA-C*08:02; assay: IEDB peptide-MHC binding, purified MHC/direct/fluorescence; filed as Kd, often an IC50 or EC50 that approximates it; bounds were set here for any values at or beyond the usual limits of such assays; settings: source organism: Coxiella burnetii RSA 493
pKd: −log10 of the molar value.
experimental.endpoint: pKd

Sample YMHGSIHEV — what was its pKd?
≤ 4.70

====

target: HLA-A*02:06; assay: IEDB peptide-MHC binding, purified MHC/competitive/radioactivity; filed as Kd, often an IC50 or EC50 that approximates it; bounds were set here for any values at or beyond the usual limits of such assays; details: source organism: Mammarenavirus juninense
experimental.endpoint: pKd
The meaning of pKd here: minus log10 of the concentration in molar units.

Find the measured pKd: item YCNYTKFWYV , target or system HLA-A*02:06.
8.18

====

biological target: HLA-B*07:02; assay: IEDB peptide-MHC binding, purified MHC/direct/fluorescence; filed as Kd, often an IC50 or EC50 that approximates it; bounds were set here for any values at or beyond the usual limits of such assays; settings: source organism: Giardia lamblia ATCC 50803
pKd: −log10 of the molar value.
Kindly state pKd for each of the entries shown.

Sample WSDLNTTDF — what was its pKd?
≤ 4.70

Sample IARLVYKAR — what was its pKd?
≤ 4.70

====

molecular target: HLA-A*68:02; assay: IEDB peptide-MHC binding, purified MHC/competitive/radioactivity; filed as Kd, often an IC50 or EC50 that approximates it; bounds were set here for any values at or beyond the usual limits of such assays; settings: source organism: Dengue virus 2 Jamaica/1409/1983
experimental.endpoint: pKd
The meaning of pKd here: minus log10 of the concentration in molar units.

Find the measured pKd: item TIMAAILAYT , target or system HLA-A*68:02.
7.06

Find the measured pKd: item NASGNIVSSV , target or system HLA-A*68:02.
7.32
